Assay: Solid state stability test (preservation stability, 70° C./75% RH, 2 weeks)
Type: physicochemical
Conditions: after 2 weeks at 70° C./75% RH, open system; HPLC
Structures can show the parent of a compound that is named as a salt.
Measure: Total amount of analogous substances (%) 70° C./75% RH (open system)
Numeric answer plus unit only.

Example results:
So, CC(C)(C)NCCNc1ccc(-c2nnc(C(F)(F)F)o2)nc1C1CCN(c2ncnc3c2C(C)(C)C(=O)N3)CC1 [Free body type I crystal] ? Its Total amount of analogous substances (%) 70° C./75% RH (open system) was 0.5%

For CC(C)(C)NCCNc1ccc(-c2nnc(C(F)(F)F)o2)nc1C1CCN(c2ncnc3c2C(C)(C)C(=O)N3)CC1 [Free body type II crystal] the compound record lists Total amount of analogous substances (%) 70° C./75% RH (open system) as 0.6%

Please fill in: Total amount of analogous substances (%) 70° C./75% RH (open system) reported for CC(C)(C)NCCNc1ccc(-c2nnc(C(F)(F)F)o2)nc1C1CCN(c2ncnc3c2C(C)(C)C(=O)N3)CC1 [Crystal of maleate] = 0.1%

// recorded Total amount of analogous substances (%) 70° C./75% RH (open system) for CC(C)(C)NCCNc1ccc(-c2nnc(C(F)(F)F)o2)nc1C1CCN(c2ncnc3c2C(C)(C)C(=O)N3)CC1 [Crystal of hydrochloride] : 0.2%

// sample CC(C)(C)NCCNc1ccc(-c2nnc(C(F)(F)F)o2)nc1C1CCN(c2ncnc3c2C(C)(C)C(=O)N3)CC1 [Crystal of ½ malate] , its Total amount of analogous substances (%) 70° C./75% RH (open system) was 64.0%

Entry CC(C)(C)NCCNc1ccc(-c2nnc(C(F)(F)F)o2)nc1C1CCN(c2ncnc3c2C(C)(C)C(=O)N3)CC1 [Frcc body type III crystal] — recorded Total amount of analogous substances (%) 70° C./75% RH (open system) = 0.8%

Here's the next entry for you.
In plain terms, CC(C)(C)NCCNc1ccc(-c2nnc(C(F)(F)F)o2)nc1C1CCN(c2ncnc3c2C(C)(C)C(=O)N3)CC1 [Crystal of acetate] has a documented Total amount of analogous substances (%) 70° C./75% RH (open system) of 1.1%

###

Experiment: Solid state stability test (preservation stability, 70° C./75% RH, 2 weeks)
Type: physicochemical
Conditions: after 2 weeks at 70° C./75% RH, closed system; HPLC
Where a name gives a salt, the structure may show the parent alone.
I'd appreciate it if you could supply Total amount of analogous substances (%) 70° C./75% RH (closed system) values for the items below.
One number for each entry, in %.

Examples with their reported Total amount of analogous substances (%) 70° C./75% RH (closed system) follow.
Per the records, this molecule ( CC(C)(C)NCCNc1ccc(-c2nnc(C(F)(F)F)o2)nc1C1CCN(c2ncnc3c2C(C)(C)C(=O)N3)CC1 [Free body type II crystal] ) has Total amount of analogous substances (%) 70° C./75% RH (closed system) equal to 0.5

The measured Total amount of analogous substances (%) 70° C./75% RH (closed system) associated with CC(C)(C)NCCNc1ccc(-c2nnc(C(F)(F)F)o2)nc1C1CCN(c2ncnc3c2C(C)(C)C(=O)N3)CC1 [Crystal of acetate] reads 0.3

Recorded result, CC(C)(C)NCCNc1ccc(-c2nnc(C(F)(F)F)o2)nc1C1CCN(c2ncnc3c2C(C)(C)C(=O)N3)CC1 [Free body type I crystal] , Total amount of analogous substances (%) 70° C./75% RH (closed system): 0.5

The reported value for CC(C)(C)NCCNc1ccc(-c2nnc(C(F)(F)F)o2)nc1C1CCN(c2ncnc3c2C(C)(C)C(=O)N3)CC1 [Frcc body type III crystal] in terms of Total amount of analogous substances (%) 70° C./75% RH (closed system) is 0.7

Value of measured Total amount of analogous substances (%) 70° C./75% RH (closed system) for the entry CC(C)(C)NCCNc1ccc(-c2nnc(C(F)(F)F)o2)nc1C1CCN(c2ncnc3c2C(C)(C)C(=O)N3)CC1 [Crystal of maleate] : 0.1

The reported value for CC(C)(C)NCCNc1ccc(-c2nnc(C(F)(F)F)o2)nc1C1CCN(c2ncnc3c2C(C)(C)C(=O)N3)CC1 [Crystal of ½ malate] in terms of Total amount of analogous substances (%) 70° C./75% RH (closed system) is 5.2

Then this molecule:
Memo: CC(C)(C)NCCNc1ccc(-c2nnc(C(F)(F)F)o2)nc1C1CCN(c2ncnc3c2C(C)(C)C(=O)N3)CC1 [Crystal of hydrochloride] , reported Total amount of analogous substances (%) 70° C./75% RH (closed system): 0.2
